# tgt: T1, human TNFR2 (expressed on cells) (human, UniProt P20333 23-461)
# T1 construct: also called hTNFR2; human TNF Receptor 2
# T1 sequence: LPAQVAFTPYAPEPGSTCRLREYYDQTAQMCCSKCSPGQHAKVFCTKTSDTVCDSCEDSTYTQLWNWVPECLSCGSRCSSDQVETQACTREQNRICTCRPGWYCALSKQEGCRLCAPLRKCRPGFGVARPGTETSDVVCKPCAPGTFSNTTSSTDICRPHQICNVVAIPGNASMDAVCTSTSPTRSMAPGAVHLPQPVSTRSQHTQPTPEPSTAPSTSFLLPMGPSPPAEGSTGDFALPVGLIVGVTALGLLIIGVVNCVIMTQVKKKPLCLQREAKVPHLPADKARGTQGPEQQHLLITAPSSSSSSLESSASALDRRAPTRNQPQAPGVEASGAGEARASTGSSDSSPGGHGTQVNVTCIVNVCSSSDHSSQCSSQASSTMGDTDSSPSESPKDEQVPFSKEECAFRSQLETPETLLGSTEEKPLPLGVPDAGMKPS
# test: flow cytometry competition, CHO cells with human TNFR2, antibody 10 µg/mL, Biotin-hTNFα 0.5 µg/mL
# Procedure: 30 μl of Biotin-hTNFα (Acro Biosystems, Cat #: TNA-H82E1) was added to each well (with a final concentration of 0.5 μg/mL in each well). The cells with Biotin-hTNFα and the antibodies were incubated at 4° C. for 30 minutes. The signals for AF647 and PE were determined by flow cytometry (Thermo Attune NX).
value type: percentage of tested cells that had Streptavidin signals (%)

{"binder": "BC-1F4-IgG1 (antibody, V domains shown, Human VH/VL joined to the human IgG1 subtype) VH: QVQLQQSGPGLVKPSQTLSLTCAISGDSVSSDSSAWNWIRQSPSRGLEWLGRTYYRSKWYNDYTVSVKSRITINPDTSKNQFSLQLNSVTPEDTAVYYCAREDGVGGTKDYFDYWGQGTLVTVSS VL: DIQMTQSPSSLSASVGDRVTITCQASQDISNYLNWYQQKPGKAPKLLIYDASNLETGVPSRFSGSGSGTDFTFTINSLQPEDFATYFCQQYDNLPITFGQGTRLEIK", "result value": 18.5}
{"binder": "BC-1A8-IgG1 (antibody, V domains shown, Fully human VH/VL joined to the human IgG1 subtype, kappa light chain (RenMab mice)) VH: QVQLQQSGPGLVKPSQTLSLTCAISGDSVSSNSAAWNWIRQSPSRGLEWLGRTYYRSKWYNDYALSVKSRITINPETSKNQFSLQLNSVTPEDTAVYYCAREDGVGGTKDYFDYWGQGTLVTVSS VL: DIQMTQSPSSLSASVGDRVTITCQASQDIDNYLNWYQQKPGKAPKLLIYDVSNLEIGVPSRFSGSGSGTDFTFTISSLQPEDIATYYCQQYDNLPLTFGQGTRLEIK", "result value": 12}
{"binder": "BC-1B6-IgG1 (antibody, V domains shown, Human VH/VL joined to the human IgG1 subtype) VH: QVQLVESGGGVVQPGRSLRLSCAASGFTFSNFGMHWVRQAPGKGLEWVAVIWYEGSDKYYADSVKGRFTISRDNSKNTLYLQMNSLRAEDTAVYYCARDSSWGFLLYGMDVWGQGTTVTVSS VL: DVVMTQSPLSLPVTLGQPASISCRSSRSLEYSDGNTYLNWFQQRPGQSPRRLIYKVSNRDSGVPDRFSGSGSGTAFTLKISGVEAEDVGVYYCMQGTHWPPTFGGGTKVEIK", "result value": 75.1}
{"binder": "BC-1C3-IgG1 (antibody, V domains shown, Human VH/VL joined to the human IgG1 subtype) VH: QVQLVESGGGVVHPGKSLRLSCAASGFTFNIYGMHWVRQAPGKGLEWVALISYDGNDKYFADSVKGRFTISRDNSKNTLYLQMNSLRAEDTAVYYCAKAVDTAVVTFFDYWGQGTLVTVSS VL: EIVMTQSPVTLSVSPGERATLSCRASQSVSSNLAWYQQKPGQAPRLLIYSASTRATGIPARFSGSGSGTEFTLTISSLQSEDLAVYYCQQYSNWPFTFGPGTKVDIK", "result value": 71.1}

The measured values listed here are drawn from patent US20250019454A1.
